# System: Staphylococcus aureus ATCC 43300 (MRSA)
I'd appreciate it if you could supply MIC values for the items below.

Below: 5 molecules and their reported MIC.
molecule	MIC
C[C@H](CCC(=O)NCCCNCCCCCCCCNCCCNC(=O)CC[C@@H](C)[C@H]1CC[C@H]2[C@@H]3[C@@H](O)C[C@@H]4C[C@H](O)CC[C@]4(C)[C@H]3CC[C@]12C)[C@H]1CC[C@H]2[C@@H]3[C@@H](O)C[C@@H]4C[C@H](O)CC[C@]4(C)[C@H]3CC[C@]12C.O=C(O)C(F)(F)F.O=C(O)C(F)(F)F	≤ 0.2 µM
C[C@H](CCC(=O)NCCCNCCCCNCCCNC(=O)CC[C@@H](C)[C@H]1CC[C@H]2[C@@H]3[C@H](O)C[C@@H]4C[C@H](O)CC[C@]4(C)[C@H]3CC[C@]12C)[C@H]1CC[C@H]2[C@@H]3[C@H](O)C[C@@H]4C[C@H](O)CC[C@]4(C)[C@H]3CC[C@]12C.O=C(O)C(F)(F)F.O=C(O)C(F)(F)F	≤ 0.21 µM
C[C@H](CCC(=O)NCCCNCCCCCCNCCCNC(=O)CC[C@@H](C)[C@H]1CC[C@H]2[C@@H]3[C@@H](O)C[C@@H]4C[C@H](O)CC[C@]4(C)[C@H]3CC[C@]12C)[C@H]1CC[C@H]2[C@@H]3[C@@H](O)C[C@@H]4C[C@H](O)CC[C@]4(C)[C@H]3CC[C@]12C.O=C(O)C(F)(F)F.O=C(O)C(F)(F)F	1.7 µM
C[C@H](CCC(=O)NCCCNCCCCCCCCNCCCNC(=O)CC[C@@H](C)[C@H]1CC[C@H]2[C@@H]3C[C@H](O)[C@@H]4C[C@H](O)CC[C@]4(C)[C@H]3CC[C@]12C)[C@H]1CC[C@H]2[C@@H]3C[C@H](O)[C@@H]4C[C@H](O)CC[C@]4(C)[C@H]3CC[C@]12C.O=C(O)C(F)(F)F.O=C(O)C(F)(F)F	≤ 0.2 µM
C[C@H](CCC(=O)NCCCNCCCCNCCCNC(=O)CC[C@@H](C)[C@H]1CC[C@H]2[C@@H]3C[C@H](O)[C@@H]4C[C@H](O)CC[C@]4(C)[C@H]3CC[C@]12C)[C@H]1CC[C@H]2[C@@H]3C[C@H](O)[C@@H]4C[C@H](O)CC[C@]4(C)[C@H]3CC[C@]12C.O=C(O)C(F)(F)F.O=C(O)C(F)(F)F	3.4 µM

Would you mind giving MIC for every molecule in the list below?
1. C[C@H](CCC(=O)NCCCNCCCCCCCCCCCCNCCCNC(=O)CC[C@@H](C)[C@H]1CC[C@H]2[C@@H]3[C@@H](O)C[C@@H]4C[C@H](O)CC[C@]4(C)[C@H]3CC[C@]12C)[C@H]1CC[C@H]2[C@@H]3[C@@H](O)C[C@@H]4C[C@H](O)CC[C@]4(C)[C@H]3CC[C@]12C.O=C(O)C(F)(F)F.O=C(O)C(F)(F)F
2. C[C@H](CCC(=O)NCCCNCCCCCCCNCCCNC(=O)CC[C@@H](C)[C@H]1CC[C@H]2[C@@H]3C[C@H](O)[C@@H]4C[C@H](O)CC[C@]4(C)[C@H]3CC[C@]12C)[C@H]1CC[C@H]2[C@@H]3C[C@H](O)[C@@H]4C[C@H](O)CC[C@]4(C)[C@H]3CC[C@]12C.O=C(O)C(F)(F)F.O=C(O)C(F)(F)F
3. C[C@H](CCC(=O)NCCCNCCCCCCCNCCCNC(=O)CC[C@@H](C)[C@H]1CC[C@H]2[C@@H]3[C@@H](O)C[C@@H]4C[C@H](O)CC[C@]4(C)[C@H]3CC[C@]12C)[C@H]1CC[C@H]2[C@@H]3[C@@H](O)C[C@@H]4C[C@H](O)CC[C@]4(C)[C@H]3CC[C@]12C.O=C(O)C(F)(F)F.O=C(O)C(F)(F)F
4. CN[C@H](CC(C)C)C(=O)N[C@H]1C(=O)N[C@@H](CC(N)=O)C(=O)N[C@H]2C(=O)N[C@H]3C(=O)N[C@H](C(=O)N[C@H](C(=O)O)c4cc(O)cc(O)c4-c4cc3ccc4O)[C@H](O)c3ccc(c(Cl)c3)Oc3cc2cc(c3O[C@@H]2O[C@H](CO)[C@@H](O)[C@H](O)[C@H]2O[C@H]2C[C@](C)(N)[C@H](O)[C@H](C)O2)Oc2ccc(cc2Cl)[C@H]1O [vancomycin, reference compound]
5. C[C@H](CCC(=O)NCCCNCCCCCCNCCCNC(=O)CC[C@@H](C)[C@H]1CC[C@H]2[C@@H]3C[C@H](O)[C@@H]4C[C@H](O)CC[C@]4(C)[C@H]3CC[C@]12C)[C@H]1CC[C@H]2[C@@H]3C[C@H](O)[C@@H]4C[C@H](O)CC[C@]4(C)[C@H]3CC[C@]12C.O=C(O)C(F)(F)F.O=C(O)C(F)(F)F

// result
≤ 0.19 µM
≤ 0.21 µM
≤ 0.21 µM
0.7 µM
≤ 0.21 µM

// query Give the measured MIC of C[C@H](CCC(=O)NCCCNCCCCCCCCCCCCNCCCNC(=O)CC[C@@H](C)[C@H]1CC[C@H]2[C@@H]3C[C@H](O)[C@@H]4C[C@H](O)CC[C@]4(C)[C@H]3CC[C@]12C)[C@H]1CC[C@H]2[C@@H]3C[C@H](O)[C@@H]4C[C@H](O)CC[C@]4(C)[C@H]3CC[C@]12C.O=C(O)C(F)(F)F.O=C(O)C(F)(F)F .
// result ≤ 0.19 µM
